// data source = paper PMC5538626

Please provide measured ratio to parent for the entries that follow.
B1: PLEKHM1‐LIR WT peptide (EDEWVNVQY), biotinylated [modified: biotin; biotin] [not stated] / 6xHis‐tagged LC3B [human] (parent complex)
chain 1: EDEWVNVQY
chain 2: not shown

variants of: B1; assay: peptide array (biotinylated LIR peptide, 6xHis-mATG8, absorbance); n = 5; read off a plot

Input: Looking for the measured ratio to parent of chain 1 W4A, chain 1 V7A , can you help?
Output: ~0.17

Input: Same for chain 1 V5C, chain 1 N6I, chain 1 V7L
Output: ~2.4

Input: Entry chain 1 V5C, chain 1 N6F, chain 1 V7L please
Output: ~1.9

Input: Let us now turn to chain 1 V5C, chain 1 N6V, chain 1 V7L
Output: ~2.3
